PROTOCOL_DESCRIPTION: Stability test in simulated intestinal fluid (SIF)
Format: in vitro ADME
EXPERIMENTAL_SETUP: simulated intestinal fluid, pH 6.8, generation in SIF, 37° C., 2 hr, read-out: Parent drug HMS5552 (%)

{"COMPOUND": "CC(C)C[C@@H](C(=O)Nc1ccn(C[C@@H](O)COC(=O)c2cccnc2)n1)N1CC(Oc2ccccc2Cl)=CC1=O [Compound A]", "metabolised at 2 h, 2 µM": "46.6%"}

----------
PROTOCOL_DESCRIPTION: Stability test in simulated intestinal fluid (SIF)
Type: in vitro ADME
EXPERIMENTAL_SETUP: simulated intestinal fluid, pH 6.8, generation in SIF, 37° C., 24 hr, read-out: Parent drug HMS5552 (%)
PARAMETER_MEASURED: metabolised at 24 h, 2 µM (%)

{"COMPOUND": "CC(C)C[C@@H](C(=O)Nc1ccn(C[C@@H](O)COC(=O)c2cccnc2)n1)N1CC(Oc2ccccc2Cl)=CC1=O [Compound A]", "VALUE_OBSERVED": 73.4}

----------
PROTOCOL_DESCRIPTION: Simulated metabolic test in human intestine S9
Assay type: in vitro ADME
EXPERIMENTAL_SETUP: human, s9, pH 7.4; HIS9 0.5 mg/mL, 37° C., 30 min; read-out: Parent drug HMS5552 (%)

{"COMPOUND_STRING": "CC(C)C[C@@H](C(=O)Nc1ccn(C[C@@H](O)COC(=O)c2cccnc2)n1)N1CC(Oc2ccccc2Cl)=CC1=O", "metabolised at 0.5 h": "79.8%"}

----------
PROTOCOL_DESCRIPTION: Caco-2 bi-directional permeability test
Type: in vitro ADME
EXPERIMENTAL_SETUP: human, Caco-2, pH 7.4, Compound A concentration 10.0 μM; read-out: Average conversion rate to parent drug HMS5552 (%) B→A

{"COMPOUND_STRING": "CC(C)C[C@@H](C(=O)Nc1ccn(C[C@@H](O)COC(=O)c2cccnc2)n1)N1CC(Oc2ccccc2Cl)=CC1=O", "metabolised at 2 h, 10 µM, %": 5.6}

----------
PROTOCOL_DESCRIPTION: Simulated metabolic test in human intestine S9
Assay type: in vitro ADME
EXPERIMENTAL_SETUP: human, s9, pH 7.4; HIS9 0.5 mg/mL, 37° C., 45 min; read-out: Parent drug HMS5552 (%)

{"COMPOUND": "CC(C)C[C@@H](C(=O)Nc1ccn(C[C@@H](O)COC(=O)c2cccnc2)n1)N1CC(Oc2ccccc2Cl)=CC1=O [Compound A]", "MEASURE_UNIT": "%", "metabolised at 0.75 h": 81.2}

----------
PROTOCOL_DESCRIPTION: Stability test in simulated gastric fluid (SGF)
Format: in vitro ADME
EXPERIMENTAL_SETUP: simulated gastric fluid, pH 1.2, generation in SGF, 37° C., 2 hr, read-out: Parent drug HMS5552 (%)
PARAMETER_MEASURED: metabolised at 2 h, 2 µM (%)

{"COMPOUND_STRING": "CC(C)C[C@@H](C(=O)Nc1ccn(C[C@@H](O)COC(=O)c2cccnc2)n1)N1CC(Oc2ccccc2Cl)=CC1=O", "VALUE_OBSERVED": 0.87}

----------
PROTOCOL_DESCRIPTION: Simulated metabolic test in human intestine S9
Assay type: in vitro ADME
EXPERIMENTAL_SETUP: human, s9, pH 7.4; HIS9 0.5 mg/mL, 37° C., 15 min; read-out: Parent drug HMS5552 (%)
PARAMETER_MEASURED: metabolised at 0.25 h (%)

{"COMPOUND_STRING": "CC(C)C[C@@H](C(=O)Nc1ccn(C[C@@H](O)COC(=O)c2cccnc2)n1)N1CC(Oc2ccccc2Cl)=CC1=O", "VALUE_OBSERVED": 77.2}
